Reported apparent KD of K4 kissing-loop reporter is given for each of the following sequences.
- Tested on: K4 kissing-loop RNA reporter
- PROTOCOL_DETAILS: apparent KD of K4 kissing-loop reporter; higher = weaker reporter binding
- APPLIED_CONDITIONS: Eterna round: R107; input ligand: arginine 13.2 mM
Value and unit, in that order.

>  <CHAIN>
AGAGUUAUGCGAGGAUAUGCGGUUAGUACUCAAAGAGUACUAACAGCAGAGUGAUGUUCUGUGAAAGCAGAAGGUGCAUAACUCA [Omei KL FMN B SS B v10]

>  <EXPERIMENTAL_TARGET>
K4 kissing-loop RNA reporter;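 further: bound reporter read as fluorescence of individual clusters on recovered sequencing chips by microscopy, with normalized cluster intensities fitted with a binding model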

>  <OBS_VALUE>
1060 nM

$$$$

For the sequence GAGUGGCAGACGGCCGCCACUCUUAGCAGCCAGCGGAGUGAUGUUCCGCCCGAGUGAUGUUCGGAGAGGACCGGGUUUGUUGUAA [Exclusion Tryptophan B GF 29] , give its reported apparent KD of K4 kissing-loop reporter.
146 nM

For the sequence UGACUGGAUGGAAGGAGCGCUAAACUCCUAGUGAUGUUAGGGAUAUGAGGCAAAGCCUCGAAGCAGGUAGGUCGCCAUCUAGUCU [FiskerMod 20 - Jieux - Same State - Arginine B] , give its reported apparent KD of K4 kissing-loop reporter.
114 nM

For the sequence GAAGUACAGGCGGCCGCCACUAGUGAUGUUAGUGAUAAAAGAUAAAGUAUAUAUCGGCAUGUAGAUAGGACCGGGCCUGAUGGAG [uiiumullin] , give its reported apparent KD of K4 kissing-loop reporter.
296 nM

For the sequence UGUCAUUGGUCGGCCGCCACUUCAUAGAGAGUGAUGUUCUUAAAGACGGAUCGAAAGAUCUGUCGAAGGACCGGGACCGAUGACU [FiskerMod 9 - Jieux - Same State - Tryptophan B] , give its reported apparent KD of K4 kissing-loop reporter.
676 nM

----------
Reported apparent KD of MS2 coat protein is given for each of the following sequences.
- System: MS2 coat protein
- PROTOCOL_DETAILS: apparent KD of MS2 coat protein, switch OFF state (with FMN for OFF switches, without FMN for ON switches); designed switch direction (-1 OFF switch, 1 ON switch): -1; higher = weaker reporter binding
- APPLIED_CONDITIONS: FMN input: 0 or 200 uM; Eterna round: R93 (includes R88 designs)

Study these solved cases before continuing.
>  <CHAIN>
AGGAAACAUGAGGAUCACCCAUGUCAGGAUAUUCAAAAGAAAAGAAAAGAAAGAAGAAGAAGAAGGGACAAGAA [Wazner]

>  <PARAMETER_MEASURED>
apparent KD of MS2 coat protein

>  <OBS_VALUE>
44.5 nM

$$$$
>  <CHAIN>
AACAAACAUGAGGAUCACCCAUGUAAGGAUAUGCAACAAAAACAAAAAACAAAAAAAAGCAGAAGGUACAACAA [Amethyst 99]

>  <PARAMETER_MEASURED>
apparent KD of MS2 coat protein

>  <OBS_VALUE>
28.8 nM

$$$$
>  <CHAIN>
AGAAAGGCAGGAUAUACAUGAGGAUCACCCAUGUUAAGAGUGACGGAAACGUCACGAAGUAGAAGGGCCAAGAA [The song I sing]

>  <PARAMETER_MEASURED>
apparent KD of MS2 coat protein

>  <OBS_VALUE>
17.3 nM

$$$$
>  <CHAIN>
AAAAAGGCAGGAUAUACAAAAAAGAGAAGAGAGGAGGAGGGACAUGAGGAUCACCCAUGUAGAAGGGCCAAAAA [Karl Gunnar Myrdal]

>  <PARAMETER_MEASURED>
apparent KD of MS2 coat protein

>  <OBS_VALUE>
32.5 nM

$$$$
>  <CHAIN>
AACAUGUAAGGAUAUCAAAGAAAAGAAAAGAAAGAAAAGAAUGAGAAGGUACAUGAGGAUCACCCAUGUAAGAA [EteRNA is fun!]

>  <PARAMETER_MEASURED>
apparent KD of MS2 coat protein

>  <OBS_VALUE>
21.1 nM

$$$$
>  <CHAIN>
AAGAACGUAGGAUAUACAUGAAAGAAAGAAAAGAAAAGAAAACAUGAGGAUCACCCAUGUAGAAGGACGUAGAA [EteRNA is fun!]

>  <PARAMETER_MEASURED>
apparent KD of MS2 coat protein

>  <OBS_VALUE>
22.1 nM

$$$$

Now for a further sequence.
For the sequence AGUUGGCGAGGAUAUACAUGAGGAUCACCCAUGUGAUAGAAAAAAGUGAGAAAGAAAAGUAGAAGGCGCUGACA [Mat - Exclusion 3 - Lego mod - D92] , give its reported apparent KD of MS2 coat protein.
254 nM
